# ASSAY SUMMARY: Selectivity ratio of CC50 for human MT4 cells to EC50 for antiviral activity against HIV-1 NL4-3 infected in human MT4 cells
# Type: toxicity, cell-based
# ASSAY CONDITIONS: read-out: Ratio CC50/EC50
// reported selectivity ratio per item

{"COMPOUND": "Cc1cc(C)cc(S(=O)(=O)c2c(C(=O)NC(C)c3cccc(O)c3)[nH]c3ccc(Cl)cc23)c1 (stereo not drawn)", "selectivity ratio": "> 22800"}
{"COMPOUND": "Cc1cc(C)cc(S(=O)(=O)c2c(C(=O)NCc3cccc(O)c3)[nH]c3ccc(Cl)cc23)c1", "selectivity ratio": "> 44900"}
{"COMPOUND": "Cc1cc(C)cc(S(=O)(=O)c2c(C(=O)NCCc3ccc(O)cc3)[nH]c3ccc(Cl)cc23)c1", "selectivity ratio": "> 39100"}
{"COMPOUND": "Cc1cc(C)cc(S(=O)(=O)c2c(C(=O)Nc3ccc(O)cc3)[nH]c3ccc(Cl)cc23)c1", "selectivity ratio": "> 25800"}
{"COMPOUND": "Cc1cc(C)cc(S(=O)(=O)c2c(C(=O)NC(C)C(=O)NCc3ccccc3O)[nH]c3ccc(Cl)cc23)c1 (stereo not drawn)", "selectivity ratio": "> 23900"}
{"COMPOUND": "COc1cc(CNC(=O)c2[nH]c3ccc(Cl)cc3c2S(=O)(=O)c2cc(C)cc(C)c2)ccc1O", "selectivity ratio": "> 47800"}
{"COMPOUND": "Cc1cc(C)cc(S(=O)(=O)c2c(C(=O)NCc3ccc(O)cc3)[nH]c3ccc(Cl)cc23)c1", "selectivity ratio": "> 8930"}
{"COMPOUND": "Cc1cn([C@H]2C[C@H](N=[N+]=[N-])[C@@H](CO)O2)c(=O)[nH]c1=O", "selectivity ratio": "> 8270"}

----------
# ASSAY SUMMARY: Inhibition of RNA-dependent DNA polymerase activity of recombinant HIV-1 p66/p51 reverse transcriptase K103N/Y181C mutant assessed as inhibition of [3H]dTTP incorporation using poly(rA)/oligo(dT) as templates incubated for 15 mins by MicroBeta scintillation counting method
# Parameters: species or system Human immunodeficiency virus 1
READOUT: IC50

{"COMPOUND": "Cc1cc(C#N)cc(C)c1Oc1nc(Nc2ccc(C#N)cc2)nc(N)c1Br", "RECORDED MEASUREMENT": "97 nM"}
{"COMPOUND": "Cc1cc(C)cc(S(=O)(=O)c2c(C(=O)NCc3ccccc3O)[nH]c3ccc(Cl)cc23)c1", "RECORDED MEASUREMENT": "76 nM"}
{"COMPOUND": "Cc1cc(C)cc(S(=O)(=O)c2c(C(=O)NC(C)C(=O)NCc3cccc(O)c3)[nH]c3ccc(Cl)cc23)c1 (stereo not drawn)", "RECORDED MEASUREMENT": "842 nM"}
{"COMPOUND": "Cc1cc(C)cc(S(=O)(=O)c2c(C(=O)NCc3ccc(O)cc3)[nH]c3ccc(Cl)cc23)c1", "RECORDED MEASUREMENT": "628 nM"}
{"COMPOUND": "Cc1cc(C)cc(S(=O)(=O)c2c(C(=O)Nc3ccc(O)cc3)[nH]c3ccc(Cl)cc23)c1", "RECORDED MEASUREMENT": "375 nM"}
{"COMPOUND": "Cc1cc(C)cc(S(=O)(=O)c2c(C(=O)NCc3ccc(CO)cc3)[nH]c3ccc(Cl)cc23)c1", "RECORDED MEASUREMENT": "188 nM"}
{"COMPOUND": "Cc1cc(C)cc(S(=O)(=O)c2c(C(=O)NCc3cccc(O)c3)[nH]c3ccc(Cl)cc23)c1", "RECORDED MEASUREMENT": "45 nM"}
{"COMPOUND": "Cc1cc(C)cc(S(=O)(=O)c2c(C(=O)NCc3ccccc3N)[nH]c3ccc(Cl)cc23)c1", "RECORDED MEASUREMENT": "15 nM"}

----------
# ASSAY SUMMARY: Binding affinity to HIV-1 p66/p51 reverse transcriptase K103N/Y181C double mutant/nucleic acid/dTTP ternary complex using poly(rA)/oligo(dT) as templates in presence of [3H]dTTP
# Set-up: species or system Human immunodeficiency virus 1
pKi: −log10 of the molar value.

{"CHEM SMILES": "Cc1cc(C)cc(S(=O)(=O)c2c(C(=O)NCc3ccccc3O)[nH]c3ccc(Cl)cc23)c1", "pKi": 7.11}

----------
// reported pIC50 per item
# TEST TARGET: Human immunodeficiency virus type 1 reverse transcriptase (Human immunodeficiency virus 1, UniProt Q72547)
# ASSAY SUMMARY: Inhibition of RNA-dependent DNA polymerase activity of wild type recombinant HIV-1 His-tagged p66/p51 reverse transcriptase assessed as inhibition of [3H]dTTP incorporation using poly(rA)/oligo(dT) as templates incubated for 15 mins by MicroBeta scintillation counting method
pIC50: −log10 of the molar value.

{"MOLECULE": "Cc1cc(C)cc(S(=O)(=O)c2c(C(=O)NCc3ccc(CO)cc3)[nH]c3ccc(Cl)cc23)c1", "pIC50": 7.42}
{"MOLECULE": "Cc1cc(C)cc(S(=O)(=O)c2c(C(=O)NCc3ccccc3N)[nH]c3ccc(Cl)cc23)c1", "pIC50": 7.72}
{"MOLECULE": "Cc1cc(C)cc(S(=O)(=O)c2c(C(=O)NCc3ccc(O)cc3)[nH]c3ccc(Cl)cc23)c1", "pIC50": 7.21}
{"MOLECULE": "Cc1cc(C)cc(S(=O)(=O)c2c(C(=O)NC(C)C(=O)NCc3cccc(O)c3)[nH]c3ccc(Cl)cc23)c1 (centres undefined)", "pIC50": 6.68}

----------
# ASSAY SUMMARY: Selectivity ratio of CC50 for human MT4 cells to EC50 for antiviral activity against HIV-1 NL4-3 infected in human MT4 cells
# Assay type: toxicity, cell-based
# ASSAY CONDITIONS: read-out: Ratio CC50/EC50

{"CHEM SMILES": "Cc1cc(C)cc(S(=O)(=O)c2c(C(=O)Nc3ccccc3O)[nH]c3ccc(Cl)cc23)c1", "selectivity ratio": "> 28200"}
{"CHEM SMILES": "Cc1cc(C)cc(S(=O)(=O)c2c(C(=O)NCc3cc(O)ncn3)[nH]c3ccc(Cl)cc23)c1", "selectivity ratio": "> 75800"}
{"CHEM SMILES": "Cc1cc(C)cc(S(=O)(=O)c2c(C(=O)Nc3ccc(CO)cc3)[nH]c3ccc(Cl)cc23)c1", "selectivity ratio": "> 56600"}
{"CHEM SMILES": "Cc1cc(C)cc(S(=O)(=O)c2c(C(=O)NCc3ccccc3N)[nH]c3ccc(Cl)cc23)c1", "selectivity ratio": "> 65900"}
{"CHEM SMILES": "Cc1cc(C)cc(S(=O)(=O)c2c(C(=O)Nc3cccc(O)c3)[nH]c3ccc(Cl)cc23)c1", "selectivity ratio": "> 35200"}
{"CHEM SMILES": "Cc1cc(C)cc(S(=O)(=O)c2c(C(=O)NCC(=O)NCc3ccccc3O)[nH]c3ccc(Cl)cc23)c1", "selectivity ratio": "> 78900"}
{"CHEM SMILES": "Cc1cc(C)cc(S(=O)(=O)c2c(C(=O)NCc3ccccc3O)[nH]c3ccc(Cl)cc23)c1", "selectivity ratio": "> 39700"}
{"CHEM SMILES": "Cc1cc(C)cc(S(=O)(=O)c2c(C(=O)NCC(=O)NCc3cccc(O)c3)[nH]c3ccc(Cl)cc23)c1", "selectivity ratio": "> 79200"}

----------
# TEST TARGET: Human immunodeficiency virus type 1 reverse transcriptase (Human immunodeficiency virus 1, UniProt Q72547)
# ASSAY SUMMARY: Binding affinity to free form of wild type HIV-1 p66/p51 reverse transcriptase using poly(rA)/oligo(dT) as templates in presence of [3H]dTTP
READOUT: Ki (nM)

{"CHEM SMILES": "Cc1cc(C)cc(S(=O)(=O)c2c(C(=O)NCc3ccccc3O)[nH]c3ccc(Cl)cc23)c1", "DISPLAY UNIT": "nM", "RECORDED MEASUREMENT": 31}

----------
# System: Human immunodeficiency virus 1
# ASSAY SUMMARY: Antiviral activity against HIV-1 NL4-3 infected in human MT-4 cells assessed as virus induced cytopathic effect by MTT assay
# Assay type: functional, organism-based
# ASSAY CONDITIONS: Human immunodeficiency virus 1, NL4-3, MT4
pEC50: −log10 of the molar value.

{"MOLECULE": "COc1cc(CNC(=O)c2[nH]c3ccc(Cl)cc3c2S(=O)(=O)c2cc(C)cc(C)c2)ccc1O", "TEST TARGET": "Human immunodeficiency virus 1", "pEC50": "> 9.22"}
{"MOLECULE": "Cc1cc(C)cc(S(=O)(=O)c2c(C(=O)NCc3ccccc3N)[nH]c3ccc(Cl)cc23)c1", "TEST TARGET": "Human immunodeficiency virus 1", "pEC50": "> 9.15"}
{"MOLECULE": "Cc1cc(C)cc(S(=O)(=O)c2c(C(=O)NC(C)C(=O)NCc3cccc(O)c3)[nH]c3ccc(Cl)cc23)c1 (stereo unspecified)", "TEST TARGET": "Human immunodeficiency virus 1", "pEC50": "> 9.22"}
{"MOLECULE": "Cc1ccnc2c1NC(=O)c1cccnc1N2C1CC1", "TEST TARGET": "Human immunodeficiency virus 1", "pEC50": 6.95}
{"MOLECULE": "Cc1cc(C)cc(S(=O)(=O)c2c(C(=O)NCC(=O)NCc3ccccc3O)[nH]c3ccc(Cl)cc23)c1", "TEST TARGET": "Human immunodeficiency virus 1", "pEC50": "> 9.22"}
{"MOLECULE": "Cc1cc(C)cc(S(=O)(=O)c2c(C(=O)NCc3cccc(O)c3)[nH]c3ccccc23)c1", "TEST TARGET": "Human immunodeficiency virus 1", "pEC50": "> 9.15"}
{"MOLECULE": "Cc1cc(C)cc(S(=O)(=O)c2c(C(=O)NC(C)c3ccccc3O)[nH]c3ccc(Cl)cc23)c1 (stereo unspecified)", "TEST TARGET": "Human immunodeficiency virus 1", "pEC50": "> 9.15"}
{"MOLECULE": "Cc1cc(C)cc(S(=O)(=O)c2c(C(=O)NCc3ccc(CO)cc3)[nH]c3ccc(Cl)cc23)c1", "TEST TARGET": "Human immunodeficiency virus 1", "pEC50": "> 9.15"}
{"MOLECULE": "Cc1cc(C)cc(S(=O)(=O)c2c(C(=O)Nc3ccccc3O)[nH]c3ccc(Cl)cc23)c1", "TEST TARGET": "Human immunodeficiency virus 1", "pEC50": "> 9.15"}
{"MOLECULE": "Cc1cc(C)cc(S(=O)(=O)c2c(C(=O)Nc3ccc(O)cc3)[nH]c3ccc(Cl)cc23)c1", "TEST TARGET": "Human immunodeficiency virus 1", "pEC50": "> 9.15"}
{"MOLECULE": "Cc1cc(C#N)cc(C)c1Oc1nc(Nc2ccc(C#N)cc2)nc(N)c1Br", "TEST TARGET": "Human immunodeficiency virus 1", "pEC50": 7.79}
{"MOLECULE": "Cc1cc(C)cc(S(=O)(=O)c2c(C(=O)NCCc3ccccc3O)[nH]c3ccc(Cl)cc23)c1", "TEST TARGET": "Human immunodeficiency virus 1", "pEC50": "> 9.15"}
{"MOLECULE": "Cc1cc(C)cc(S(=O)(=O)c2c(C(=O)NCc3ccccc3O)[nH]c3ccc(Cl)cc23)c1", "TEST TARGET": "Human immunodeficiency virus 1", "pEC50": "> 9.15"}
{"MOLECULE": "Cc1cc(C)cc(S(=O)(=O)c2c(C(=O)NC(C)C(=O)NCc3ccccc3O)[nH]c3ccc(Cl)cc23)c1 (stereo unspecified)", "TEST TARGET": "Human immunodeficiency virus 1", "pEC50": "> 9.22"}
{"MOLECULE": "Cc1cn([C@H]2C[C@H](N=[N+]=[N-])[C@@H](CO)O2)c(=O)[nH]c1=O", "TEST TARGET": "Human immunodeficiency virus 1", "pEC50": 8.43}
{"MOLECULE": "Cc1cc(C)cc(S(=O)(=O)c2c(C(=O)Nc3ccc(CO)cc3)[nH]c3ccc(Cl)cc23)c1", "TEST TARGET": "Human immunodeficiency virus 1", "pEC50": "> 9.15"}
